- Test system: Rhodotorula rubra
- EXPERIMENTAL DETAILS: Minimum Inhibitory Concentration (MIC) test, two fold serial dilutions
- Assay type: cell-based
- Set-up: unit not given here
- RECORDED CONDITIONS: Minimal Salts Media (M9G)
- Procedure: The spectrum of antimicrobial activity of the antimicrobial agents useful in the present invention were determined in Minimum Inhibitory Concentration (MIC) tests. MICs were determined by two fold serial dilutions of a compound in Minimal Salts Media (M9G), Trypticase Soy Broth (TSB) or Tryticase Soy Broth and anionic surfactant (TSBA). The compounds were tested against Aspergillus niger, Rhodotorula rubra, Escherichia coli and Pseudomonas aeruginosa. Results of the MIC tests are shown below.
OBSERVABLE: R. Rubra M9G
A bare number is all that is needed in reply.

// worked examples, R. Rubra M9G included
COMPOUND | R. Rubra M9G
Cc1nc(C(F)F)c(C(=O)Nc2c(Br)cc(Br)cc2Br)s1 [Compound 34] | 300
O=C(Nc1c(Br)cc(OC(F)(F)F)cc1Br)c1sc(C(F)(F)F)nc1C(F)(F)F [Compound 29] | 300
Cc1nc(C(F)F)c(C(=O)Nc2c(Br)cc(OC(F)(F)F)cc2Br)s1 [Compound 35] | 300
Cc1nc(C(F)(F)F)c(C(=O)Nc2c(Cl)cc(OC(F)(F)F)cc2Cl)s1 [Compound 33] | 300
O=C(Nc1c(Br)cc(Br)cc1Br)c1sc(C(F)(F)F)nc1C(F)(F)F [Compound 26] | 300

Okay, next one:
### Prompt Which R. Rubra M9G is reported for this compound? O=C(Nc1ccc(F)c(F)c1)c1sc(C(Cl)(Cl)Cl)nc1C(F)(F)F [Compound 43]
### Response 30
